Measured % de déplacement du ligand marqué, listed per entry.
Tested on: récepteurs surrénaliens de l'angiotensine II
Test: Displacement of radioligand [125I]-SIAII specifically bound to adrenal angiotensin II receptors (rat adrenal homogenate)
Type: binding
Details: competitor 1E-7 M, 60 min, 25°C, 0.1 µM

Molecule | % de déplacement du ligand marqué, %
CCCc1n[nH]c(COC)c1Cc1ccc(NC(=O)c2ccccc2S(=O)(=O)O)cc1 [Exemple 108] | 19
CCCCc1nn(C)c(OCC(=O)O)c1Cc1ccc(-c2ccccc2C(=O)O)cc1 [Exemple 37] | 9
CCCc1nn(CC(F)(F)F)c(OCC(=O)OC)c1Cc1ccc(NC(=O)c2ccccc2C(=O)O)cc1 [Exemple 33] | 26
CCCc1nn(C)c(OCC(=O)OCC)c1Cc1ccc(NC(=O)c2ccccc2C(=O)O)cc1 [Exemple 29] | 40
CCCc1n[nH]c(CO)c1Cc1ccc(NC(=O)c2ccccc2S(=O)(=O)O)cc1 [Exemple 116] | 12
CCCc1nn(CC(F)(F)F)c(OCCO)c1Cc1ccc(-c2ccccc2-c2nn[nH]n2)cc1 [Exemple 92] | 70
CCCc1nn(CC(F)(F)F)c(OCC(=O)OCC)c1Cc1ccc(-c2ccccc2-c2nn[nH]n2)cc1 [Exemple 84] | 51
CCCCc1nn(C)c(COC)c1Cc1ccc(-c2ccccc2-c2nnn[nH]2)cc1 [Exemple 118] | 35
CCCc1nn(C)c(COC)c1Cc1ccc(NC(=O)c2ccccc2S(=O)(=O)O)cc1 [Exemple 107] | 62
CCCc1nn(C)c(OC(=O)N(C)C)c1Cc1ccc(-c2ccccc2-c2nn[nH]n2)cc1 [Exemple 86] | 41
CCCc1nn(C)c(OCC(=O)OC)c1Cc1ccc(NC(=O)c2ccccc2C(=O)O)cc1 [Exemple 28] | 34
CCCc1nn(C)c(OCC(=O)OCC)c1Cc1ccc(NC(=O)c2c(Cl)ccc(Cl)c2C(=O)O)cc1 [Exemple 30] | 63
CCCc1nn(C)c(OCC(=O)OC)c1Cc1ccc(NC(=O)c2c(Cl)ccc(Cl)c2C(=O)O)cc1 [Exemple 31] | 60
